- assayed.target: glutathione-S-transferase (GST) tagged LXRalpha LBD (ligand binding domain) (Homo sapiens)
- Construct: purchased Invitrogen pv4655
- Sequence (Q13133 209-447 limits assumed): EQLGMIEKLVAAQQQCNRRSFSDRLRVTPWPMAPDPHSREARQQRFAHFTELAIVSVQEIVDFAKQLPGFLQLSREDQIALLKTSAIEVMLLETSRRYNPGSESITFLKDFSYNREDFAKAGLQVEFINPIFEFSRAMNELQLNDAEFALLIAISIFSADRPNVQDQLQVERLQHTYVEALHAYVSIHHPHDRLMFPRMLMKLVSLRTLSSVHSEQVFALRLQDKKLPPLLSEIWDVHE
- protocol.description: LanthaScreen TR-FRET Liver X Receptor Coactivator Assay, LXR alpha-LBD
- Format: biochemical
- conditions: efficacy in relation to reference dual agonist T1317; read-out: LXR alpha activity at max dose (%) (Emax)
- Procedure: While running the LanthaScreen™ TR-FRET Liver X Receptor Coactivator Assay, LXR alpha-LBD or LXR beta-LBD was added to ligand test compounds followed by addition of a mixture of a fluorescein-labelled coactivator peptide and terbium-conjugated anti-GST antibody. After an incubation period at room temperature, TR-FRET (time-resolved fluorescence resonance energy transfer) was measured using a filter-based instrument capable of TR-FRET, e.g. PerkinElmer Envision.
Collected Emax values appear next to each entry.
# value in %; strip the unit string

molecule: CN(C)C(=O)c1ccc(-c2ccc(N3CCN(S(=O)(=O)c4c(Cl)cccc4Cl)CC3)c(Cl)c2)cc1Cl [Example 4-8]
recorded.metric: Emax
reported.value: 38
--
molecule: CN(CCn1cncn1)C(=O)c1ccc(-c2cnc(N3CCN(C(=O)C(C)(C)c4ccccc4)CC3)c(C#N)c2)cc1Cl [Example 6-3]
recorded.metric: Emax
reported.value: 33
--
molecule: CN(CCn1cccn1)C(=O)c1ccc(-c2cnc(N3CCN(C(=O)OC(C)(C)C)CC3)c(C#N)c2)cc1Cl [Example 5-23]
recorded.metric: Emax
reported.value: 46
--
molecule: CN(C)C(=O)c1ccc(-c2cnc(N3CCN(S(=O)(=O)c4c(Cl)cccc4Cl)CC3)c(C#N)c2)cc1Cl [Example 1-1]
recorded.metric: Emax
reported.value: 55
--
molecule: CN(C)C(=O)c1ccc(-c2cnc(N3CCN(C(=O)[C@](C)(O)C(F)(F)F)CC3)c(C#N)c2)cc1Cl [Example 2-16]
recorded.metric: Emax
reported.value: 58

[Q] Given CN(C)C(=O)c1ccc(-c2cnc(N3CCN(S(=O)(=O)c4c(Cl)cccc4C(F)(F)F)CC3)c(C#N)c2)cc1Cl [Example 1-18] , state its recorded Emax.
[A] 62

[Q] Given CN(C)C(=O)c1ccc(-c2ccc(N3CC4CCC(C3)N4S(=O)(=O)c3c(Cl)cccc3Cl)cc2)cc1Cl [Example 8-14] , state its recorded Emax.
[A] 37
